pIC50: −log10 of the molar value.
The listing below reports pIC50 for compounds tested on CDK2 (human) (UniProt P24941).
quantityMeasured: pIC50

molecule: COc1ccc(CNC=C2C(=O)NC(=O)c3ccc(-c4ccc5ccccc5c4)cc32)cc1O
pIC50: 4.30

1. Cc1cccc(-c2ccc3c(c2)C(=CNCc2ccc(O)c(O)c2)C(=O)NC3=O)c1
2. COc1cnc(CNC=C2C(=O)NC(=O)c3ccc(-n4cccc4)cc32)cc1O
3. C=CCOc1ccc(CN/C=C2\C(=O)NC(=O)c3ccc(Br)cc32)cc1O
[ask] Falling order of pIC50, please. Put the labels in the requested order and write them down.
[reply] 2, 3, 1
